tested on: four weed species (ABUTH, CHEAL, DIGSA, SETVI); experiment: Adjuvant efficacy with nicosulfuron, glasshouse spray test, average over all species; type: in vivo; conditions: nicosulfuron WG, mean over 15 and 60 g/ha, adjuvant 0.2% v/v (none in No Adjuvant rows), 21 days, average of ABUTH
# Mean % Herbicidal Activity Average over all Species annotations

Before answering, review these 5 worked examples.
Requested read-out: Mean % Herbicidal Activity Average over all Species. Entry: CCCCCCOc1cc(OCCOCCOCCOCCOCCOCCOCCOCCOCCOCCOC)ncn1 [Adjuvant 2]
82%

Using the record for CCCCCCCCCCCCOc1cc(OCCOCCOCCOCCOCCOCCOCCOCCOCCOCCOC)ncn1 [Adjuvant 7] , report its Mean % Herbicidal Activity Average over all Species.
81%

Fill in the blank: the reported Mean % Herbicidal Activity Average over all Species of CCCCCCCCCCCCOc1cc(OCCOCCOCCOCCOCCOCCOCCOC)ncn1 [Adjuvant 6] is ____.
71%

// lookup Mean % Herbicidal Activity Average over all Species for CCCCCCCCC=CCCCCCCCCOc1cc(OCCOCCOCCOCCOCCOCCOCCOCCOCCOCCOC)ncn1 [Adjuvant 10]
81%

Which Mean % Herbicidal Activity Average over all Species is reported for this molecule? CCCCCCCCCCCCOc1cc(OCC(C)OCC(C)OCC(C)OC)ncn1 (centres unmarked) [Adjuvant 12]
85%

More entries:
Given CCCCCCCCC=CCCCCCCCCOc1cc(OCCOCCOC)ncn1 [Adjuvant 9] , state its recorded Mean % Herbicidal Activity Average over all Species.
80%

# query: Mean % Herbicidal Activity Average over all Species of entry CCCCCCCCCOc1cc(OCCOCCOCCOCCOCCOCCOCCOCCOCCOCCOC)ncn1 [Adjuvant 5]
63%

Given the molecule CCCCCCOc1cc(OCCOCCOCCOCCOCCOCCOCCOCCOCCOCCOCCOCCOCCOCCOCCOCCOCCOCCOCCOCCOC)ncn1 [Adjuvant 3] , what is its reported Mean % Herbicidal Activity Average over all Species?
76%
